src = ChEMBL document CHEMBL1134370

Molecular target: UniProt Q13133
Sequence (whole entry): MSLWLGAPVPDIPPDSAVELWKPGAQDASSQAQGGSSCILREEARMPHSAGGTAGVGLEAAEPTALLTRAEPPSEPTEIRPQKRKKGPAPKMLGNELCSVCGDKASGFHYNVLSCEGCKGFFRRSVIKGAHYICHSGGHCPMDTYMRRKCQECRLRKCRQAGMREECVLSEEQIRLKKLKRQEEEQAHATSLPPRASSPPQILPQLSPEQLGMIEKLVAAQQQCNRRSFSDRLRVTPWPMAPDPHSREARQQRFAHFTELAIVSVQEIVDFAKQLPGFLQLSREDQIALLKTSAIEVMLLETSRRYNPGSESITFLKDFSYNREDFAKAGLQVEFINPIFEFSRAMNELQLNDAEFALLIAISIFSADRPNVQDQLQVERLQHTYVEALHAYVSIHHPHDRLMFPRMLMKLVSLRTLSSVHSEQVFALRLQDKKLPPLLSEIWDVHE
Assay: Tested for its ability to activate Liver X receptor-alpha expressed as Relative efficacy determined by maximal increase in relative fluorescence in LiSA
Let's look at some compounds and their measured RE.
Give the figure only, with no unit attached.

Examples with answers:
COMPOUND	ENDPOINT VALUE
CC(C)C[C@H](O)C[C@@H](C)[C@H]1CC[C@H]2[C@@H]3CC=C4C[C@@H](O)CC[C@]4(C)[C@H]3CC[C@]12C	0.7
C[C@H](CCC(=O)O)[C@H]1CC[C@H]2[C@@H]3CC=C4C[C@@H](O)CC[C@]4(C)[C@H]3CC[C@]12C	0.2
COC(=O)CC[C@@H](C)[C@H]1CC[C@H]2[C@@H]3CC=C4C[C@@H](O)CC[C@]4(C)[C@H]3CC[C@]12C	1.1

Now for the compound whose RE we want.
Check the records and state RE for CC(C)CC[C@@H](O)[C@@H](C)[C@H]1CC[C@H]2[C@@H]3CC=C4C[C@@H](O)CC[C@]4(C)[C@H]3CC[C@]12C [22(R)-HYDROXYCHOLESTEROL] 0.85
